Each recorded value in this set is attributed to PubChem BioAssay (Tox21).

assay: qHTS assay to identify small molecule that activate the aryl hydrocarbon receptor (AhR) signaling pathway - cell viability counter screen (AID 743086); conditions: HepG2-AhR-luc viability, CellTiter-Fluor, 24 h; series mostly up to 70.3 µM; note: nearly all actives have a fitted effect of over 45% in size
Inconclusive results are not listed. Calls of active or inactive are those of the source. Calls come from the whole dose curve; as a rule, active = well fitted cell-killing curve with a large enough effect in the repeat runs; inconclusive = weak or mixed curves, or effect the other way; inactive = flat fitted curve, though single readings scatter.
Reply using exactly one outcome from active, inactive

Please review the entries below; each comes with its answer.
O=S1(=O)OC(c2cc(Br)c(O)c(Br)c2)(c2cc(Br)c(O)c(Br)c2)c2ccccc21: active
O=C(N[C@H](c1ccccc1)[C@@H]1CN2CCC1CC2)c1c(Cl)ccc(C(F)(F)F)c1Cl: active
CC(=O)NC1CCSC1=O (centres undefined): inactive

Query: Can you look up the reported call for CCCCOC(=O)c1ccccc1C(=O)OCc1ccccc1 for me?
Result: inactive

Query: Can you look up the reported call for CC1(C)[C@H](C=C(Cl)Cl)[C@@H]1C(=O)O[C@@H](C#N)c1cccc(Oc2ccccc2)c1 for me?
Result: inactive

Query: Can you look up the reported call for CC(C)(C)C(O)C(Oc1ccc(Cl)cc1)n1cncn1 (centres undefined) for me?
Result: inactive

Query: Can you look up the reported call for O=[N+]([O-])c1ccccc1CCl for me?
Result: inactive

Query: Can you look up the reported call for C(=NC1CCCCC1)=NC1CCCCC1 for me?
Result: inactive

Query: Can you look up the reported call for O=C(CBr)c1ccccc1 for me?
Result: inactive

Query: Can you look up the reported call for O=C(CBr)OCc1ccccc1 for me?
Result: inactive

Query: Can you look up the reported call for O=S1OC[C@@H]2[C@H](CO1)[C@]1(Cl)C(Cl)=C(Cl)[C@@]2(Cl)C1(Cl)Cl (some centres undefined) for me?
Result: inactive

Query: Can you look up the reported call for II for me?
Result: inactive

###

experiment: qHTS assay to identify small molecule agonists of the vitamin D receptor (VDR) signaling pathway - cell viability counter screen (AID 743224); conditions: VDR-bla HEK293T viability, CellTiter-Glo luminescence, 16 h; series mostly up to 62.6 µM; note: nearly all actives have a fitted effect of over 50% in size
Records with an inconclusive call do not appear. The source made the active and inactive calls. Calls come from the whole dose curve; as a rule, active = well fitted cell-killing curve with a large enough effect in the repeat runs; inconclusive = weak or mixed curves, or effect the other way; inactive = no such curve, though single readings can be large or run the other way.
Reply using exactly one outcome from Yes for active, No for inactive

Please review the entries below; each comes with its answer.
CCOc1ccc(C(C)(C)COCc2cccc(Oc3ccccc3)c2)cc1: No
CCCCNP(N)(N)=S: No
O=C(Nc1ccccc1)Nc1cnns1: No
CCCC(=O)Cl: No

Query: Can you look up the reported call for CN1C(=O)C(O)N=C(c2ccccc2)c2cc(Cl)ccc21 (stereo not drawn) for me?
Result: No

Query: Can you look up the reported call for Brc1ccc(Oc2ccccc2)cc1 for me?
Result: No

Query: Can you look up the reported call for CCCCCCCCOC(=O)c1ccc(C(=O)OCCCCCCCC)c(C(=O)OCCCCCCCC)c1 for me?
Result: No

Query: Can you look up the reported call for NC(=O)C(Cl)(Cl)Cl for me?
Result: No

Query: Can you look up the reported call for C=C(C#N)CCC#N for me?
Result: No

Query: Can you look up the reported call for CC1CC(CC2CCC(N)C(C)C2)CCC1N (stereo not drawn) for me?
Result: No

Query: Can you look up the reported call for C#CCOC(C(=O)OCCN(C)C)(c1ccccc1)c1ccccc1 for me?
Result: No

Query: Can you look up the reported call for CCCCOC(=O)c1ccccc1C(=O)OCc1ccccc1 for me?
Result: No
